- Target: HLA-B*08:01
- Protocol summary: IEDB peptide-MHC binding, purified MHC/competitive/radioactivity; filed as Kd, often an IC50 or EC50 that approximates it; bounds were set here for any values at or beyond the usual limits of such assays
- Particulars: source organism: Vaccinia virus WR
// NB: equality with 20 nM counts as Condition not met; only Kd strictly below is Condition met

Here are 4 sequences together with their reported answers.
Seq: FQTVNFNNA
Class label: Condition not met
//
Seq: LLKLGFEEI
Class label: Condition not met
//
Seq: SNKRKVLAI
Class label: Condition met
//
Seq: AFKNKRLVF
Class label: Condition not met

Problem: Consider the sequence SPLSKCVVV . Is its Kd strictly less than 20 nM?
Solution: Condition not met

Problem: Please let me know if KWKYENPCK shows Kd below 20 nM.
Solution: Condition not met

Problem: Confirm or reject: Kd of MFFIRFGKM lies strictly below 20 nM
Solution: Condition not met

* * *

- Target: HLA-A*11:01
- Protocol summary: IEDB peptide-MHC binding, purified MHC/competitive/radioactivity; filed as Kd, often an IC50 or EC50 that approximates it; bounds were set here for any values at or beyond the usual limits of such assays
- Particulars: source organism: Vaccinia virus WR
Value type: Kd

Seq: HMVRCCKVY
Target: HLA-A*11:01
Kd: ≥ 40 µM
//
Seq: ESRDRKWLYY
Target: HLA-A*11:01
Kd: ≥ 59 µM

Shift focus to the following entry.
Problem: Provide only the value of recorded Kd for LTTHCTKLR
Solution: ≥ 77.9 µM

* * *

# Lookup of reported Kd keyed by entry
- Target: HLA-B*18:01
- Protocol summary: IEDB peptide-MHC binding, purified MHC/competitive/radioactivity; filed as Kd, often an IC50 or EC50 that approximates it; bounds were set here for any values at or beyond the usual limits of such assays
- Particulars: source organism: SARS coronavirus Tor2

Seq: NDFVSDADST
Endpoint result: ≥ 70.5 µM
--
Seq: CELYHYQECV
Endpoint result: ≥ 36.2 µM
--
Seq: GDYFVLTSHT
Endpoint result: ≥ 70.5 µM

Problem: Tell us which Kd value is on record for MDGIQYGRSG
Solution: ≥ 70.5 µM

* * *

- Target: HLA-A*03:01
- Protocol summary: IEDB peptide-MHC binding, purified MHC/competitive/fluorescence; bounds were set here for any values at or beyond the usual limits of such assays
- Particulars: source organism: Zaire ebolavirus
Listing of recorded IC50 by entry.

Record excerpt, results attached:
Seq: GYYSTTIRY
IC50: ≥ 300 µM

Seq: LMNFHQKKN
IC50: ≥ 334 µM

// moving on: another record for IC50
Problem: State IC50 (HLA-A*03:01) of ATQVEQHHR .
Solution: ≥ 90.8 µM

* * *

Each record here notes measured Kd.
- Target: HLA-A*32:01
- Protocol summary: IEDB peptide-MHC binding, purified MHC/competitive/radioactivity; filed as Kd, often an IC50 or EC50 that approximates it; bounds were set here for any values at or beyond the usual limits of such assays
- Particulars: source organism: Vaccinia virus WR

Problem: Please indicate Kd recorded for IISYIILFI
Solution: ≥ 27.6 µM

Problem: Respond only with Kd recorded for ITINYFLLL
Solution: ≥ 77.8 µM

Problem: Give a short answer stating reported Kd for FQTVNFNNA .
Solution: ≥ 50.9 µM

Problem: Give the reported value of Kd for this record: KWKYENPCK
Solution: ≥ 59 µM

Attribution: the Immune Epitope Database (IEDB)
